- assay.system: Stromal cell-derived factor 1 (Homo sapiens, UniProt P48061)
- Sequence (P48061 whole entry): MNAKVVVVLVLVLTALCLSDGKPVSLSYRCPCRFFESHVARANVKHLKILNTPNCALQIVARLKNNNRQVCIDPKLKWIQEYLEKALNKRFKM
- assay: Binding affinity to human CXCL12 at 100 uM by glycan microarray analysis
Mark No for Activity values under 80%, and Yes for everything at or above.

>>> group("NCCOCCO[C@@H]1O[C@@H](C(=O)O)[C@@H](O[C@@H]2O[C@@H](C(=O)O)[C@@H](O[C@@H]3O[C@@H](C(=O)O)[C@@H](O)[C@H](O)[C@H]3O)[C@H](O)[C@H]2O)[C@H](O)[C@H]1O")
"No"
>>> group("NCCOCCO[C@@H]1O[C@@H](C(=O)O)[C@@H](O[C@@H]2O[C@@H](C(=O)O)[C@@H](O[C@@H]3O[C@@H](C(=O)O)[C@@H](O[C@@H]4O[C@@H](C(=O)O)[C@@H](OS(=O)(=O)O)[C@H](O)[C@H]4OS(=O)(=O)O)[C@H](O)[C@H]3OS(=O)(=O)O)[C@H](O)[C@H]2OS(=O)(=O)O)[C@H](O)[C@H]1OS(=O)(=O)O")
"Yes"
>>> group("NCCOCCO[C@@H]1O[C@@H](C(=O)O)[C@@H](OS(=O)(=O)O)[C@H](O)[C@H]1O")
"No"
>>> group("NCCOCCO[C@@H]1O[C@@H](C(=O)O)[C@@H](O[C@@H]2O[C@@H](C(=O)O)[C@@H](OS(=O)(=O)O)[C@H](O)[C@H]2OS(=O)(=O)O)[C@H](O)[C@H]1OS(=O)(=O)O")
"Yes"
